Hey, just so you know, these numbers are from PubChem BioAssay (NCI).

system: HL-60(TB) leukemia; assay: NCI tumour cell line growth inhibition, 48 h; in the data active means GI50 below about 0.43 µM; inactive means the rest
Pick from true (active), false (inactive) when you respond.

1) O=C(c1ccco1)c1c(C(F)(F)F)nc2cc(C(F)(F)F)ccc2[n+]1[O-] : false

Could you please tell me the result logged for O=C1/C(=C/c2ccc([N+](=O)[O-])s2)Oc2ccccc21 in this assay? false

# iterate: Cc1[nH]nc2c1N=C(c1ccccc1F)c1cc(C#N)ccc1N2 true

---

Let's go through some GI50 measurements on NCI-H460 lung together.

Answered examples (2):
1. COC(=O)c1c2c(c(C)[n+]([O-])c1C)C(=O)C(NCc1cccc(OC)c1)=CC2=O : 1.71 µM
2. CC(F)(F)c1cc(F)ccc1-c1sc2cc(O)ccc2c1Oc1ccc(/C=C/C(=O)O)cc1 : 8.18 µM

Turning now to a further record.
Query GI50 on NCI-H460 lung for COc1ccc(C2C(c3ccccc3)C(=O)N2c2cc(OC)c(OC)c(OC)c2)cc1I (configuration not stated) 0.337 µM
